Assay: NCI Yeast Anticancer Drug Screen. Data for the wt1 strain (AID 149);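 further: 0% = growth of vehicle-treated wt1 cultures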
Conditions: S. cerevisiae wt1 strain (SPY 50644) growth inhibition; at 33.0 µM; stronger effect = higher value
Method: Growth inhibition of yeast strains with defined genetic alterations is measured as a screen for potential anti-cancer activity. Selected strains with alterations in DNA damage repair or cell cycle control were exposed to compounds and growth inhibition was measured relative to vehicle treated controls. The strain used in this assay is wt1
This is part of a sample that, as a whole, favours compounds with a hit. Of some 79,000 tested, about 15% had one in any assay.
QUANTITY_NAME: growth inhibition (%)
Dear colleague, please return just the value in %, with no unit written.

{"columns": ["COMPOUND", "OBSERVED_RESULT"],
 "data": [
  ["O=C1Nc2ccccc2/C1=C/c1ccccc1", 6],
  ["Cc1c2cccc(Sc3ccccc3)c2c2c3c(cccc13)[S+](c1ccccc1)C2 (stereo not given)", 96],
  ["Cc1cc(O)c(C(C)C)cc1C1(c2cc(C(C)C)c(O)cc2C)OC(=O)c2ccccc21", 1],
  ["CCOC(=O)CC1(C(=O)OCC)c2[nH]c3ccccc3c2CCN1Cc1ccccc1 (stereo not given)", -5]
]}

Turning to the following compound.
Data point: CC(=O)OCC1OC2OC(=O)NC2C(OC(C)=O)C1OC(C)=O (stereo not given) ; growth inhibition = -2

###

Assay: NCI Yeast Anticancer Drug Screen. Data for the sgs1 mgt1 strain (AID 161);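 further: 0% = growth of cultures given vehicle only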
Conditions: S. cerevisiae sgs1 mgt1 strain, at 5.0 µM (retest, dose inferred, filed as 0.5), stronger effect = higher value
Procedure: Growth inhibition of yeast strains with defined genetic alterations is measured as a screen for potential anti-cancer activity. Selected strains with alterations in DNA damage repair or cell cycle control were exposed to compounds and growth inhibition was measured relative to vehicle treated controls. The strain used in this assay is sgs1 mgt1
The panel holds about 79,000 compounds, 15% with a hit somewhere; the sample as a whole holds those more often. Calls of active or inactive are those of the source. Cut-off read from the data, not from the text of the source: active = growth inhibition above about 70%; inactive = the rest.
QUANTITY_NAME: growth inhibition

Recorded results for 4 molecules are shown here.
{"columns": ["MOLECULE", "growth inhibition"],
 "data": [
  ["CNC(=O)OCc1c(COC(=O)NC)c(-c2ccc(Cl)cc2)n2c1CCC2", "33% (inactive)"],
  ["Cc1nc(Nc2ccccc2[N+](=O)[O-])sc1C(=O)CC(=O)C(=O)Nc1c(C(C)C)cccc1C(C)C", "7% (inactive)"],
  ["OC(/C=C/c1ccccc1)(Cc1cc(-c2ccccc2)n[nH]1)c1ccccc1 (stereo unspecified)", "17% (inactive)"],
  ["Cc1ccc2c3ccc4c(c3n(C)c2c1)C(=O)C=CC4=O", "9% (inactive)"]
]}

# growth inhibition of O=C(CSC(=S)N1CCCCC1)Nc1nc2c(s1)CCCC2 = 17% (inactive)

response.value for CN(C)CCCCN1c2ccccc2Sc2ccc(N=[N+]=[N-])cc21 (field: growth inhibition) = -16% (inactive)

###

Experiment: NCI Yeast Anticancer Drug Screen. Data for the mlh1 strain (AID 171);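 further: 0% = growth of vehicle-treated control cultures of the same strain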
Conditions: S. cerevisiae mlh1 strain growth inhibition; at 100.0 µM; stronger effect = higher value
The panel holds about 79,000 compounds, 15% with a hit somewhere; the sample as a whole holds those more often. Calls of active or inactive are those of the source. Cut-off read from the data, not from the text of the source: active = growth inhibition above about 70%; inactive = the rest.
QUANTITY_NAME: growth inhibition

A selection of reference data follows.
{"columns": ["MOLECULE", "growth inhibition"],
 "data": [
  ["CC(C)/C(Cl)=N\\OC(=O)Nc1ccc(F)cc1F", "53% (inactive)"],
  ["CNCCCNc1c2ccccc2nc2cccc([N+](=O)[O-])c12", "97% (active)"],
  ["CC(C)(C)N=C(NO)c1ccccc1", "64% (inactive)"],
  ["O=C(NNc1ccccc1)c1ccc(Cl)c(Cl)c1", "47% (inactive)"],
  ["CCCCCCCCCCCCCCCCCC(=O)NCCCN(C)C", "97% (active)"],
  ["O=C(O)CNC(=S)Nc1ccccc1", "93% (active)"],
  ["CC(C)OC(=O)Nc1ccc2nc(-c3cscn3)[nH]c2c1", "96% (active)"],
  ["Cc1cc(C)c(NC(=S)NC(=O)c2ccccc2)cc1C", "32% (inactive)"],
  ["CC(C)OC(=O)c1ccc(CCc2cc(O)c(Br)cc2O)cc1", "94% (active)"],
  ["O=[N+]([O-])c1ccc(N/N=C/Cc2ccccc2)c([N+](=O)[O-])c1", "11% (inactive)"]
]}

Lookup result for CCOC(=O)c1cc([N+](=O)[O-])c(Sc2ncnc3nc[nH]c23)c([N+](=O)[O-])c1 ; measured growth inhibition: 90% (active)

// field: growth inhibition; key: OCC(CO)C(c1cccc2ccccc12)c1cccc2ccccc12 ; value = 92% (active)

###

Assay: NCI Yeast Anticancer Drug Screen. Data for the rad52 strain (AID 147);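 further: 0% = growth of vehicle-treated control cultures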
Settings: S. cerevisiae rad52 mutant growth inhibition; at 3.7 µM
Compounds without any hit were thinned out: in the full panel of roughly 79,000, 15% have a hit. Calls of active or inactive are those of the source. Cut-off read from the data, not from the text of the source: active = growth inhibition above about 70%; inactive = the rest.
Valid outcomes are listed here; reply with one: active, inactive

Worked examples follow.
{"columns": ["COMPOUND", "CLASS_LABEL"],
 "data": [
  ["CCOc1c(N=Nc2ccccc2OC)c(C)nn1C(=S)S", "inactive"],
  ["CN(C)c1ccc2c(SCC(=O)OCC(=O)[C@@]3(O)CC[C@H]4[C@@H]5CCC6=CC(=O)C=C[C@]6(C)[C@H]5C(=O)C[C@@]43C)c3ccc(N(C)C)cc3nc2c1", "inactive"],
  ["O=C(NO)Nc1cc(Cl)cc(Cl)c1", "inactive"],
  ["O=C(O)C1CC(c2ccccc2)=NN1c1ccccc1 (configuration not stated)", "inactive"],
  ["COc1cc(C2c3cc4c(cc3OC(OC(C)=O)C2C)OCO4)cc(OC)c1OC (configuration not stated)", "inactive"]
]}

Q: Hello, I am checking results. What call was entered for C=C(C(=C)n1nnc(C(=O)OC)c1C(=O)OC)n1nnc(C(=O)OC)c1C(=O)OC ?
A: inactive

Q: Field: outcome | Entry: CC(=O)OCC1OC2OC(=O)NC2C(OC(C)=O)C1OC(C)=O (configuration not stated)
A: inactive

Q: For Oc1[nH]c2ccccc2c1N=NC(=S)N1CCCCC1 , what call appears in the results of this test?
A: inactive

Q: What is the recorded call for this compound in the test? Cc1cc2c(cc1C)[n+]([O-])c(-c1nc3ccccc3s1)c(N)[n+]2[O-]
A: inactive

Q: Status in this test for CNC(=O)OCc1c(COC(=O)NC)c(-c2ccc(Cl)c(Cl)c2)n2c1SCC2 ?
A: inactive

Q: Short answer needed: outcome of this test for N/C(=N/N=C/c1cc(Br)cc(Br)c1O)NO ?
A: inactive

Q: Field: outcome | Entry: O=C1C(Br)=C(c2ccccc2)O/C1=C/C(=O)c1ccc(Br)cc1
A: inactive

Q: Check the results log: what was the call for CCN(CC)CCNc1ccc([N+](=O)[O-])c2nc3ccccc3c(N)c12 ?
A: inactive

Q: Status in this test for CCCC/C([O-])=C1/C(=O)N(c2ccccc2)N=C1C.CCCC/C([O-])=C1/C(=O)N(c2ccccc2)N=C1C.[Cu+2] ?
A: inactive

Q: Dear all, I need the recorded test outcome for O=C1C=C(Cl)C(=O)C(c2ccc(Cl)cc2)=C1 , thank you.
A: inactive

Q: What did this assay record as the result for O=C1/C(=C/c2ccccc2)CCCC1CN1CCCCC1 (configuration not stated) ?
A: inactive

Q: Please indicate how the test categorized O=[N+]([O-])c1cc[n+]([O-])cc1 .
A: inactive

Q: I'd appreciate the recorded outcome for CC(C)c1ccc(NC(=S)NC(=O)c2ccccc2)cc1 from this test.
A: inactive

Q: Name the outcome recorded for Cc1cc(N(CCOS(C)(=O)=O)CCOS(C)(=O)=O)ccc1C=Nc1ccc(-c2csc(-c3ccccc3)n2)c(Cl)c1 in the assay.
A: inactive

Q: Given COc1cccc2c1C(=O)c1c(O)c3c(c(O)c1C2=O)CC(O)(C(O)CO)CC3OC1CC(N2CCOCC2)C(O)C(C)O1 (configuration not stated) , state the outcome it received in this test.
A: active

Q: Hello, I am checking results. What call was entered for CC(C)OC(=O)Nc1ccc2nc(-c3cscn3)[nH]c2c1 ?
A: inactive

Q: For O=C(c1ccc([N+](=O)[O-])cc1)C1N=NCC1c1ccccc1 (configuration not stated) , what call appears in the results of this test?
A: inactive

Q: Which outcome was entered for the compound Oc1ccc(-c2nc(-c3ccc(F)cc3)c(-c3ccc4ccccc4n3)[nH]2)cc1 in this test?
A: inactive

Q: Hi team, can someone confirm the assay call for O=C(O)c1cc2ccccc2c2c1C(=O)c1ccccc1-2 ?
A: inactive

Q: Given CCCC(=O)Oc1ccc(/C=N/NC(N)=S)nc1 , state the outcome it received in this test.
A: inactive

Q: # lookup: test call for CCc1c[n+]([O-])c(C)cc1[N+](=O)[O-]
A: inactive
